- Method Notes: yeast display, Sf9 membrane polyspecificity reagent, FACS + sequencing; frameworks hold sequencing errors

| Seq Text | polyreactivity (PSR sort gate) |
| --- | --- |
| QVQLVESGGGLVQAGGSLRLSCAASGSIFRLNTMGWYRQAPGKERELVAAITRSGSTNYADSVKGRFTISRDNAMNTVYLQMNSLKPEDTAVYYCAARYPREAAYGFEYWGQGTQVTVSS | high polyreactivity |
| QVQLVESGGGLVQAGGSLRLSCADSGRIFASYAMGWYRQAPRKERELVAAISWRGGTTYYADSVKGRFTSSRDNAKNTVYLQMNSLKPEDTAVYYCATTSSLGSWGYDYWGQGTQVTVSS | high polyreactivity |
| QVQLVEAGGGLVQAGGSLRLSCAASGSIFVGNAMGWYRQAPGKERELVAAISSSGGRKFYADSVKGRFTISRDNAKNTVYLQMISLKPEDTAVYYCAAVYTHWQQRMDYWGQGTQVTVSS | high polyreactivity |

---

- Method Notes: yeast display, Sf9 membrane polyspecificity reagent, FACS + sequencing; frameworks hold sequencing errors
Value Type: polyreactivity (PSR sort gate)

| Seq Text | polyreactivity (PSR sort gate) |
| --- | --- |
| QVQLVESGGGIVQAGGSLRLSCAASGSIFSYYAMGWYRMAPGKERELVAGITGGGSTDYADSLKGRFTISRDNAKNTVYLQMNSLKPEDTAVYYCAKRYVPWRPYDYWGKGTQVTVSS | low polyreactivity |
| QVQLVESGGGLVQAGGSLRLSCAEYAMGCYRQAPGKERELVATITARGGSTYADSVKGRFTISRDNAKNTVYLQMNSLKPEDTAVYYCNADYGLFYRATFYGYDYWGQCTQVTVSS | low polyreactivity |
| QVQLVESGGGLVQAGGSLRLSCAASGSIFVRNTMGWYRQAPGKERELVATISSGGRTYYADSVKGRFTISRDNAKNTVYLQMNSLKPEETAVYYCAAGYSYAQYSYPFLSFAFGYWGQGTQVTVSS | high polyreactivity |
| QVQLVESGGGLVQAGGSLRLSCAASGSTFLLYDMGWYRQAPGKERELVAAITWSGGSTYYADSVKGRFTISRDNAKNTVYLQMNSLKPEDTAVYYCAADSLGDRYYYWGQGTQVTVSS | low polyreactivity |

q: Report polyreactivity (PSR sort gate), nothing else, for this sequence: QVQLVESGGGLVQAGGSLRLSCAASGSIFIDNAMGWYRQAPGKEREFVAAISKSGTSTYYADSVKGRFTISRDNAKNTVYLQMNSLKPEDTAVYYCAVRRPRPYSNYYYWGQGTQVTVSS
a: high polyreactivity

---

- Method Notes: yeast display, Sf9 membrane polyspecificity reagent, FACS + sequencing; frameworks hold sequencing errors
Value Type: polyreactivity (PSR sort gate)

| Seq Text | Result |
| --- | --- |
| QVQLVESGGGLVQAGGSLRLSCAASGSIFWSNAMGWYRQAPGKESELVATIDDDVGSTYYADSVMGRFTISRDNAKNTVYLQMNSLKPEDTAVYYCAADSVYYVIPYEYWGQGTQVTVSS | low polyreactivity |
| QVQLVESGGGLVQAGGSLRLSCAASGRNFSGNTMGWYRQAPGKERELVAAITGRGGSTYYADSVKGRFTISRDNAKNTVYLQMNSLKPEDNAVYYCAALRYTFAGRFDYWGQGTQVTVSS | high polyreactivity |
| QVQLVESGGGLVQAGGSLRLSCAASGSIFSYYAMGWYRQAPGKERELVAAISRSGVSTYYADSVKGRFTISRDNAKNTVYLQMNSLKPEDTAVYYCNAVFTWPRRKYGYDYWGQGTQVTVSS | high polyreactivity |
| QVQLVESGGGLVQAGGSLRLICAASGIIFPVYDMGWYRQAPGKERELVASITDSGGSTSYADSVKGRFTISRDNAKNTVYLQLNSLKPEDTAVYYCAVTDSDTNYYGYLSYDYWGQGTQVNVSS | low polyreactivity |
| QVQLVESGGGLVQAGGSLRLSCAASGSIFYYNAMGWYRQAPGKERELVAAITSGGSTHYADSVKGRFTISRDNAKNTVYLQMNSLKPEDTAVYYCAADVWYKYHRSAIIVEFDYWGQGTQVTVSS | low polyreactivity |
| QVQLVESGGGLVQAGGSLSLSCAASGSTFDRNAMGWYRQAPGKERELVAGISFSGGSTYYADSVKGRFTISRDNAKNTVYLQMNSLKPEDTAVYYCAASTYQPGAVPFDYWGQGTQVTVSS | low polyreactivity |
| QVQLVESGGGLVQAGGSLRLSCAASGRTFLIYAMGWYRQAPGKERELVAGITRGSTTYADSVKGRFTISRDNAKNTVYLQMNSLKPEDTEVYYCAARNYSVATYGEYDYWGQGTQVTVSS | high polyreactivity |
| QVQLVESGGGLVQAGGSLRLSCAASGRIFYSNTMGWNRQAPGKEREMVATITSGGSTNYADSVKGRFTISRDNAKNTVYFQMNILKPEDTAVYYCAADAYATHPFRSESDYWGQGTQVTVSS | low polyreactivity |
| QVQLVESGGGLVQAGGSLRLSCAASGIIFGLYTMGWYRQAPGKERELVAAISDSGGRTYYADSVKGRFTISRDNAKNTVYLQMNSLKPEDTAVYYCAAEFWYVLEYNYWGQGTQVTVSS | high polyreactivity |
| QVQLVESVGGLVQAGGSLRLICAASGSIFSPYAMGWYRQAPGKERELVAAINFNGGTTYYADSVKGRFTISRDNAKNTVDLQMNSLKPEDTAVYYCAADEVPGFGYPPYPWFDYWGQGTQVTVSS | low polyreactivity |

Would you mind giving polyreactivity (PSR sort gate) for every sequence in the list below?
1. QDQLVESGGGLVQAGGSLRLSCAASGLTIIFNAMGWYRQAPGKERELVADISSGVNTNYADSVKGRFTISRDNAKNTVYLQMNSLKPEDTAVYYCAARLAQSTGYGYWGQGTQVTVSS
2. QVQLVESGVGLVQAGGSLRLSCAASGFIFDHNAMGWYRQAPGKERELVAAITRSGGSTYYADSVKGRFTISRDNAKNTVYLQMNSLKPEDTAVYYCAADLSYRGATRGDYYWGQGTQVTVSS
3. QVQLVESGGGLVQAGGSLRLSCAASGLIFYGYVMGWYRQAPGKERELVAGISRNSGSTYYADSVKGRFTISRDNAKTTVYLQMNSLKPEDTAVYYCAKAYYRRYAAPGYDYWGQGTQVTVSS
4. QVQLVESGGGLVQAGGSLSLSCAASGRTFYYYAMGWYRQAPGKERELVAAITSRGTSTYYADSVKGRFTISRDNAKNTVYLQMNSLKPEDTAVYYCAAGFISYYGNCYDYWGQGTQVTVSS

a:
1: low polyreactivity; 2: low polyreactivity; 3: low polyreactivity; 4: high polyreactivity
